# SYSTEM NAME: T1, SNTG2, Q9NY99
# T1 sequence (Q9NY99 68-166, limits assumed, looked up): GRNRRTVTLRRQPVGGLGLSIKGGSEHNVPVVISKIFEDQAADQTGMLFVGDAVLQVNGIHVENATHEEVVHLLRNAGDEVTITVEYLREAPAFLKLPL
# TEST METHOD NOTES: holdup assay
# Design: key: below the threshold = too weak to quantify, mostly under pKd 3.1 to 4
# CONDITION SUMMARY: plain residues with an end cap or a label only (N-terminal biotin on a linker: ttds)
Reported pKd values are given for each entry in this list.
READOUT KIND: pKd

1. QRQARSETLV [HPV59-E6, Q81964]	4.05
2. SSLQSLETSV [ATP2B4, P23634]	4.89
3. VDFPPKESSL [ACVR2A, P27037]	4.11
4. RLPKIKETTV [FRMPD4, Q14CM0]	5.3
5. SKPTRRETEV [HPV35-E6, P27228]	3.95
6. PVRVCEETSL [OTULIN, Q96BN8]	4.63
7. EVVHTPETSV [SLC16A3, O15427]	4.55
8. RHTTSTETAV [HPV30-E6, P36809]	4.67
9. NDPAWDETNL [ARHGEF7, Q14155;Q14155-1]	4.22
10. KKYVDAETSL [SLC4A7, Q9Y6M7]	4.33
11. RPLPRKVSQL [DOCK4, Q8N1I0]	3.77
12. RLQRRRETQV [HPV18-E6, P06463]	4.03
13. EMDRRPATVV [PLCB4, Q15147]	3.71
14. DKDPHSETAL [TMIGD1, Q6UXZ0]	4.06
